# Test system: 171881-019-R-J1-PDC tumor spheroid viability
# TEST DETAILS: Anticancer human tumor 171881-019-R-J1-PDC patient-derived invasive breast carcinoma cell line growth inhibition [PI3K]; active = viability on the fitted dose curve at most 10% of control; inactive = the rest
# PROTOCOL CONDITIONS: second compound 1 µM; first compound 3.16 µM; spheroids with HUVEC and MSC
Classes used: class 1 (active), class 0 (inactive)

COMPOUND	LABEL CLASS
C#Cc1c(F)ccc2cc(O)cc(-c3ncc4c(N5CC6CCC(C5)N6)nc(OCC56CCCN5CC(F)C6)nc4c3F)c12 (stereo not drawn) + Cc1nc(NC(=O)N2CCCC2C(N)=O)sc1-c1ccnc(C(C)(C)C(F)(F)F)c1	class 1
CC(Cn1ccc(-c2ccc(C#N)c(Cl)c2)n1)NC(=O)c1cc(C(C)O)[nH]n1 (stereo not drawn) + CC(Nc1ncnc2nc[nH]c12)c1cc2cccc(Cl)c2c(=O)n1-c1ccccc1	class 0
CNC(=O)c1ccc(N2C(=S)N(c3ccc(C#N)c(C(F)(F)F)c3)C(=O)C2(C)C)cc1F + CC(Nc1ccc2c(c1)OCCn1cc(N3C(=O)OCC3C(F)F)nc1-2)C(N)=O	class 0

====

# System: 171881-019-R-J1-PDC tumor spheroid viability
# TEST DETAILS: Anticancer human tumor 171881-019-R-J1-PDC cell line growth inhibition [PI3K];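 note: spheroids exposed to compound for 7 days before viability read; 100% = DMSO vehicle-treated spheroids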
# PROTOCOL CONDITIONS: second compound 0.0316 µM; first compound 0.316 µM; hits give low values; spheroids with HUVEC and MSC

COMPOUND	viability, T/C (%)
CC(C)NCC(C(=O)N1CCN(c2ncnc3c2C(C)CC3O)CC1)c1ccc(Cl)cc1 (stereo unspecified) + COc1c(OCCCN2CCOCC2)ccc2c3n(c(=NC(=O)c4cnc(N)nc4)nc12)CCN3	25.8
CC(C)NCC(C(=O)N1CCN(c2ncnc3c2C(C)CC3O)CC1)c1ccc(Cl)cc1 (stereo unspecified) + Cc1nc(NC(=O)N2CCCC2C(N)=O)sc1-c1ccnc(C(C)(C)C(F)(F)F)c1	50.1
CC(Cn1ccc(-c2ccc(C#N)c(Cl)c2)n1)NC(=O)c1cc(C(C)O)[nH]n1 (stereo unspecified) + Cc1nc(NC(=O)N2CCCC2C(N)=O)sc1-c1ccnc(C(C)(C)C(F)(F)F)c1	87.7
Cn1ncc(Cl)c1-c1cc(C(=O)NC(CN)Cc2cccc(F)c2)sc1Cl (stereo unspecified) + Cc1nc(NC(=O)N2CCCC2C(N)=O)sc1-c1ccnc(C(C)(C)C(F)(F)F)c1	34.2
CC1(C)CCC(Nc2ncc(C(F)(F)F)c(-c3c[nH]c4c(P(C)(C)=O)c(C#N)ccc34)n2)CN1 (stereo unspecified) + Cc1nc(NC(=O)N2CCCC2C(N)=O)sc1-c1ccnc(C(C)(C)C(F)(F)F)c1	73.8
CC(C)NCC(C(=O)N1CCN(c2ncnc3c2C(C)CC3O)CC1)c1ccc(Cl)cc1 (stereo unspecified) + CC(Nc1ccc2c(c1)OCCn1cc(N3C(=O)OCC3C(F)F)nc1-2)C(N)=O	38.6

====

# Test system: 171881-019-R-J1-PDC tumor spheroid viability
# TEST DETAILS: Anticancer human tumor 171881-019-R-J1-PDC cell line growth inhibition [PI3K]; active = viability on the fitted dose curve at most 10% of control; inactive = the rest;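 note: spheroids exposed to compound for 7 days before viability read; 100% = DMSO vehicle-treated spheroids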
# PROTOCOL CONDITIONS: second compound 0.01 µM; first compound 0.0316 µM; spheroids with HUVEC and MSC
Classes used: active, inactive

MOLECULE	TARGET	LABEL CLASS
C#Cc1c(F)ccc2cc(O)cc(-c3ncc4c(N5CC6CCC(C5)N6)nc(OCC56CCCN5CC(F)C6)nc4c3F)c12 (stereo unspecified) + CC(Nc1ccc2c(c1)OCCn1cc(N3C(=O)OCC3C(F)F)nc1-2)C(N)=O	171881-019-R-J1-PDC tumor spheroid viability	inactive
CCN1CCN(Cc2ccc(Nc3ncc(F)c(-c4cc(F)c5nc(C)n(C(C)C)c5c4)n3)nc2)CC1 + CC(Nc1ccc2c(c1)OCCn1cc(N3C(=O)OCC3C(F)F)nc1-2)C(N)=O	171881-019-R-J1-PDC tumor spheroid viability	inactive
Cn1nccc1Nc1nccc(-c2ccn(C(CO)c3ccc(Cl)c(F)c3)c(=O)c2)n1 (stereo unspecified) + COc1c(OCCCN2CCOCC2)ccc2c3n(c(=NC(=O)c4cnc(N)nc4)nc12)CCN3	171881-019-R-J1-PDC tumor spheroid viability	inactive
CC(C)n1nc(-c2ccc3oc(N)nc3c2)c2c(N)ncnc21 + COc1c(OCCCN2CCOCC2)ccc2c3n(c(=NC(=O)c4cnc(N)nc4)nc12)CCN3	171881-019-R-J1-PDC tumor spheroid viability	active
C=CC(=O)N1CCN(c2nc(=O)n(-c3c(C)ccnc3C(C)C)c3nc(-c4c(O)cccc4F)c(F)cc23)C(C)C1 (stereo unspecified) + CC(Nc1ccc2c(c1)OCCn1cc(N3C(=O)OCC3C(F)F)nc1-2)C(N)=O	171881-019-R-J1-PDC tumor spheroid viability	inactive
CC(=O)c1c(C)c2cnc(Nc3ccc(N4CCNCC4)cn3)nc2n(C2CCCC2)c1=O + CC(Nc1ccc2c(c1)OCCn1cc(N3C(=O)OCC3C(F)F)nc1-2)C(N)=O	171881-019-R-J1-PDC tumor spheroid viability	inactive
C#Cc1c(F)ccc2cc(O)cc(-c3ncc4c(N5CC6CCC(C5)N6)nc(OCC56CCCN5CC(F)C6)nc4c3F)c12 (stereo unspecified) + COc1c(OCCCN2CCOCC2)ccc2c3n(c(=NC(=O)c4cnc(N)nc4)nc12)CCN3	171881-019-R-J1-PDC tumor spheroid viability	inactive
CNC(=O)c1ccc(N2C(=S)N(c3ccc(C#N)c(C(F)(F)F)c3)C(=O)C2(C)C)cc1F + CC(Nc1ccc2c(c1)OCCn1cc(N3C(=O)OCC3C(F)F)nc1-2)C(N)=O	171881-019-R-J1-PDC tumor spheroid viability	inactive
Cn1ncnc1[C@H]1c2n[nH]c(=O)c3cc(F)cc(c23)N[C@@H]1c1ccc(F)cc1 + COc1c(OCCCN2CCOCC2)ccc2c3n(c(=NC(=O)c4cnc(N)nc4)nc12)CCN3	171881-019-R-J1-PDC tumor spheroid viability	inactive
Cn1ncc(Cl)c1-c1cc(C(=O)NC(CN)Cc2cccc(F)c2)sc1Cl (stereo unspecified) + COc1c(OCCCN2CCOCC2)ccc2c3n(c(=NC(=O)c4cnc(N)nc4)nc12)CCN3	171881-019-R-J1-PDC tumor spheroid viability	inactive
CC1(C)CCC(Nc2ncc(C(F)(F)F)c(-c3c[nH]c4c(P(C)(C)=O)c(C#N)ccc34)n2)CN1 (stereo unspecified) + CC(Nc1ccc2c(c1)OCCn1cc(N3C(=O)OCC3C(F)F)nc1-2)C(N)=O	171881-019-R-J1-PDC tumor spheroid viability	inactive
CCCS(=O)(=O)Nc1ccc(F)c(C(=O)c2c[nH]c3ncc(-c4ccc(Cl)cc4)cc23)c1F + COc1c(OCCCN2CCOCC2)ccc2c3n(c(=NC(=O)c4cnc(N)nc4)nc12)CCN3	171881-019-R-J1-PDC tumor spheroid viability	inactive
CNC(=O)c1ccc(N2C(=S)N(c3ccc(C#N)c(C(F)(F)F)c3)C(=O)C2(C)C)cc1F + COc1c(OCCCN2CCOCC2)ccc2c3n(c(=NC(=O)c4cnc(N)nc4)nc12)CCN3	171881-019-R-J1-PDC tumor spheroid viability	inactive
CC1(C)CCC(CN2CCN(c3ccc(C(=O)NS(=O)(=O)c4ccc(NCC5CCOCC5)c([N+](=O)[O-])c4)c(Oc4cnc5[nH]ccc5c4)c3)CC2)=C(c2ccc(Cl)cc2)C1 + COc1c(OCCCN2CCOCC2)ccc2c3n(c(=NC(=O)c4cnc(N)nc4)nc12)CCN3	171881-019-R-J1-PDC tumor spheroid viability	inactive
CC(=O)c1c(C)c2cnc(Nc3ccc(N4CCNCC4)cn3)nc2n(C2CCCC2)c1=O + COc1c(OCCCN2CCOCC2)ccc2c3n(c(=NC(=O)c4cnc(N)nc4)nc12)CCN3	171881-019-R-J1-PDC tumor spheroid viability	inactive
CC1(C)CCC(Nc2ncc(C(F)(F)F)c(-c3c[nH]c4c(P(C)(C)=O)c(C#N)ccc34)n2)CN1 (stereo unspecified) + COc1c(OCCCN2CCOCC2)ccc2c3n(c(=NC(=O)c4cnc(N)nc4)nc12)CCN3	171881-019-R-J1-PDC tumor spheroid viability	inactive
C=CC(=O)N1CCN(c2nc(=O)n(-c3c(C)ccnc3C(C)C)c3nc(-c4c(O)cccc4F)c(F)cc23)C(C)C1 (stereo unspecified) + COc1c(OCCCN2CCOCC2)ccc2c3n(c(=NC(=O)c4cnc(N)nc4)nc12)CCN3	171881-019-R-J1-PDC tumor spheroid viability	inactive
Cn1ncnc1[C@H]1c2n[nH]c(=O)c3cc(F)cc(c23)N[C@@H]1c1ccc(F)cc1 + CC(Nc1ccc2c(c1)OCCn1cc(N3C(=O)OCC3C(F)F)nc1-2)C(N)=O	171881-019-R-J1-PDC tumor spheroid viability	inactive
CC(Cn1ccc(-c2ccc(C#N)c(Cl)c2)n1)NC(=O)c1cc(C(C)O)[nH]n1 (stereo unspecified) + COc1c(OCCCN2CCOCC2)ccc2c3n(c(=NC(=O)c4cnc(N)nc4)nc12)CCN3	171881-019-R-J1-PDC tumor spheroid viability	inactive
CC(C)NCC(C(=O)N1CCN(c2ncnc3c2C(C)CC3O)CC1)c1ccc(Cl)cc1 (stereo unspecified) + COc1c(OCCCN2CCOCC2)ccc2c3n(c(=NC(=O)c4cnc(N)nc4)nc12)CCN3	171881-019-R-J1-PDC tumor spheroid viability	inactive
CCCS(=O)(=O)Nc1ccc(F)c(C(=O)c2c[nH]c3ncc(-c4ccc(Cl)cc4)cc23)c1F + CC(Nc1ccc2c(c1)OCCn1cc(N3C(=O)OCC3C(F)F)nc1-2)C(N)=O	171881-019-R-J1-PDC tumor spheroid viability	inactive
